- Test system: Mycobacterium kansasii
- assay.text: MIC, micro broth dilution with resazurin readout
- Assay type: cell-based
- condition.details: MH Culture Medium, clinically isolated strain Kansasii (S520), read-out: Minimum Inhibitory Concentration (MIC)
Please provide measured MIC for the entries that follow.
# answer = value followed by unit

### Prompt Please report MIC with Mycobacterium kansasii for item CC[C@H]1OC(=O)[C@H](C)[C@@H](O[C@H]2C[C@@](C)(OC)[C@@H](O)[C@H](C)O2)[C@H](C)[C@@H](O[C@@H]2O[C@H](C)C[C@H](N(C)C)[C@H]2O)[C@](C)(OC)C[C@@H](C)C(=O)[C@H](C)[C@@H](O)[C@]1(C)O .
### Response 0.0625 µg/mL

### Prompt Write MIC of COc1c(N2C[C@@H]3CCCN[C@@H]3C2)c(F)cc2c(=O)c(C(=O)O)cn(C3CC3)c12 ; system used: Mycobacterium kansasii
### Response 0.0625 µg/mL

### Prompt Fill: MIC (Mycobacterium kansasii) for this compound CO[C@H]1/C=C/O[C@@]2(C)Oc3c(C)c(O)c4c(c3C2=O)C2=NC3(CCN(CCn5c([N+](=O)[O-])cnc5C)CC3)NC2=C(NC(=O)/C(C)=C\C=C\[C@H](C)[C@H](O)[C@@H](C)[C@@H](O)[C@@H](C)[C@H](OC(C)=O)[C@@H]1C)C4=O
### Response 0.0625 µg/mL

### Prompt Write down the reported MIC (system: Mycobacterium kansasii) of CO[C@H]1/C=C/O[C@@]2(C)Oc3c(C)c(O)c4c(c3C2=O)C2=NC3(CCN(CC(C)C)CC3)NC2=C(NC(=O)/C(C)=C\C=C\[C@H](C)[C@H](O)[C@@H](C)[C@@H](O)[C@@H](C)[C@H](OC(C)=O)[C@@H]1C)C4=O
### Response 0.0625 µg/mL

### Prompt Answer with MIC of CO[C@H]1/C=C/O[C@@]2(C)Oc3c(C)c(O)c4c(O)c(c(/C=N/N5CCN(C)CC5)c(O)c4c3C2=O)NC(=O)/C(C)=C\C=C\[C@H](C)[C@H](O)[C@@H](C)[C@@H](O)[C@@H](C)[C@H](OC(C)=O)[C@@H]1C measured for Mycobacterium kansasii.
### Response 0.0625 µg/mL

### Prompt Enter measured MIC, system Mycobacterium kansasii, for the compound shown: Cc1ncc([N+](=O)[O-])n1CCO
### Response 8 µg/mL

---

- System: Mycobacterium fortuitum
- assay.text: MIC, micro broth dilution with resazurin readout
- Assay type: cell-based
- condition.details: Mycolicibacterium fortuitum, MH Culture Medium; clinically isolated strain Fortuitum (S103); read-out: Minimum Inhibitory Concentration (MIC)
parameter: MIC (mg/L)
Answer with a number only, understood to be in mg/L.

### Prompt Identify the reported MIC for the following entry. Cc1ncc([N+](=O)[O-])n1CCO [Metronidazole]
### Response 8

### Prompt Quick one: give measured MIC for COc1c(N2C[C@@H]3CCCN[C@@H]3C2)c(F)cc2c(=O)c(C(=O)O)cn(C3CC3)c12 [Moxifloxacin]
### Response 1

### Prompt Given the compound CO[C@H]1/C=C/O[C@@]2(C)Oc3c(C)c(O)c4c(c3C2=O)C2=NC3(CCN(CC(C)C)CC3)NC2=C(NC(=O)/C(C)=C\C=C\[C@H](C)[C@H](O)[C@@H](C)[C@@H](O)[C@@H](C)[C@H](OC(C)=O)[C@@H]1C)C4=O [Rifabutin] , write its reported MIC.
### Response 32
